measurement description: Stability assay with DOTA (1000:1 DOTA-to-ligand)
Format: physicochemical
condition description: RT, 0 h

compound	% of intact complex, DOTA, 0 h
CSCCN1CCN(CCSC)CCN(CCSC)CCN(CCSC)CC1.[64Cu+2] [[^64Cu][Cu(DO4S)]^2+]	100%
CNC(=O)CN1CCN(CCSC)CCN(CCSC)CCN(CCSC)CC1.[64Cu+2] [[^64Cu][Cu(DO3SAm)]^2+]	100%
CSCCN1CCN(CC(=O)[O-])CCN(CCSC)CCN(CC(=O)[O-])CC1.[64Cu+2] [[^64Cu][Cu(DO2A2S)]]	91%
CSCCN1CCNCCN(CCSC)CCN(CCSC)CC1.[64Cu+2] [[^64Cu][Cu(DO3S)]^2+]	100%
